# Test system: Periplaneta americana
# PROTOCOL TEXT: Insecticidal activity against Periplaneta americana (American cockroach) assessed as killing compound injected into abdomen of cockroach after 24 hr in presence of 50 ug propargyl propyl benzenephosphonate inhibitor of hydrolytic metabolism of tetramethrin pyrethroid
# Format: functional
# Lookup of reported MLD keyed by entry
Please give a number only; it is taken to be in nmol.

{"COMPOUND SMILES": "CS/C(=N\\C#N)NCc1ccc(Cl)nc1", "MLD (nmol)": 0.83}
{"COMPOUND SMILES": "N#C/N=C1\\SCCN1Cc1ccc(Cl)nc1", "MLD (nmol)": 0.46}
{"COMPOUND SMILES": "O=[N+]([O-])/N=C1\\NCCN1Cc1ccc(Cl)nc1", "MLD (nmol)": 0.19}
{"COMPOUND SMILES": "CN(Cc1ccc(Cl)nc1)/C(=N/C#N)NCc1ccccc1", "MLD (nmol)": 8.1}
{"COMPOUND SMILES": "CN(C)/C(=N\\C#N)N(C)Cc1ccc(Cl)nc1", "MLD (nmol)": 32}

The molecule "CN(Cc1ccc(Cl)nc1)/C(N)=N/C#N" showed MLD equal to 0.71

Notebook: "CS/C(=N\C#N)N(C)Cc1ccc(Cl)nc1" , MLD read as 6.3

"CN/C(=N\C#N)NCc1ccc(Cl)nc1" yielded MLD of 18
